Target: UniProtKB O60674
Sequence (O60674 whole entry): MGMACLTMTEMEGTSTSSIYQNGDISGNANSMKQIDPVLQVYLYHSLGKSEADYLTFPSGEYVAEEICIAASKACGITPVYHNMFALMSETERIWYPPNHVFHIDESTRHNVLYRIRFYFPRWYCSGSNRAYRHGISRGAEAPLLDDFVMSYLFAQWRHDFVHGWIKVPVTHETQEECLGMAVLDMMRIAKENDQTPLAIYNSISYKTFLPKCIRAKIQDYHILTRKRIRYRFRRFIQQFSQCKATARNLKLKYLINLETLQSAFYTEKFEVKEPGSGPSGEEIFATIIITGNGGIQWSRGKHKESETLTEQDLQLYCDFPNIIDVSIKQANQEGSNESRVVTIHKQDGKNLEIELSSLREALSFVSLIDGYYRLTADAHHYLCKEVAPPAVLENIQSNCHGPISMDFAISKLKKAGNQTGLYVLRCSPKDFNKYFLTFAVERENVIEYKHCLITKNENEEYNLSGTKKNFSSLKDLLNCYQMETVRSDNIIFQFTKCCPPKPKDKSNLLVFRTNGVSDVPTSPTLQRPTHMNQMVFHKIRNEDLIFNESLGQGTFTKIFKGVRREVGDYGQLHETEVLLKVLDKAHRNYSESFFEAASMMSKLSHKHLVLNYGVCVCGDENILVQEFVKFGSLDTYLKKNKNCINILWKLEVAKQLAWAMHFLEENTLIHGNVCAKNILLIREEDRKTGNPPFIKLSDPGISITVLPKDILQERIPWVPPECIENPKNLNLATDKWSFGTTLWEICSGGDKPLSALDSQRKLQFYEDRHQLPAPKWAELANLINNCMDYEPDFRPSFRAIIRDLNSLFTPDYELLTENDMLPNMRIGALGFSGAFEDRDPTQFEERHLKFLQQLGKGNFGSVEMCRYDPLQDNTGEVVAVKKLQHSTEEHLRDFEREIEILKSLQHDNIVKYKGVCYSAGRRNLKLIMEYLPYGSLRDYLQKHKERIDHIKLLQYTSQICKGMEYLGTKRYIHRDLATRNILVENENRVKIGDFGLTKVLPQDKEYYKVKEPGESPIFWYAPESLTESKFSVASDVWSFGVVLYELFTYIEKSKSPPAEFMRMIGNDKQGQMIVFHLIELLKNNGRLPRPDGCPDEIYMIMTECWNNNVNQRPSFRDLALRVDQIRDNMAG
Assay: JAK2 kinase activity test at molecular level (Z'-LYTE FRET)
Format: biochemical
Conditions: Table 1; read-out: JAK2 kinase activity IC50
Text: JAK2 can catalyze the transfer of a phosphate group of adenosine triphosphate (ATP) to a polypeptide substrate, and the polypeptide substrate is labeled with two fluorescent groups, coumarin and fluorescein. […] Therefore, the inhibition rates of different compounds can be calculated by measuring the ratio of enzyme-catalyzed substrate phosphorylation percentages. […]
Decision: IC50 beneath 100 nM gives label 1; IC50 meeting or exceeding 100 nM gives label 0.

Here's what some known entries look like.
>>> df
                                   compound    group
0  CC(Oc1cc(-c2cnn(C3CCNCC3)c2)cnc1N)c1cc(F)ccc1Cl (centres unmarked)  label 1
1  COc1ccc(F)c(Cl)c1C(C)Oc1cc(-c2cnn(C3CCNCC3)c2)cnc1N (centres unmarked)  label 1
2  CC(Oc1cc(-c2cccc(N3CCNCC3)c2)cnc1N)c1cc(F)ccc1Cl (centres unmarked)  label 1
3  C[C@@H](Nc1cc(-c2cnn(C3CCNCC3)c2)cnc1N)c1c(Cl)ccc(F)c1Cl  label 0
4  COc1ccc(F)cc1C(C)Oc1cc(-c2cnn(C3CCNCC3)c2)cnc1N (centres unmarked)  label 1

Problem: For the compound `C[C@@H](Oc1cc(-c2cccnc2)cnc1N)c1c(Cl)ccc(F)c1Cl` , is IC50 under 100 nM?
label 0
